# half-life listing for each entry below
- protocol: in vivo
- assay conditions: male, B6C3F1/N, mouse, po, Free Elimination half-life

| compound | unit | half-life |
| --- | --- | --- |
| O=S(=O)(c1ccc(O)cc1)c1ccc(O)cc1 | h | 6.11 |
| Oc1ccc(C(c2ccc(O)cc2)(C(F)(F)F)C(F)(F)F)cc1 [BPAF, 2,2-bis(4-hydroxyphenyl)perfluoropropane] | h | 6.66 |

====

- protocol: in vivo
- assay conditions: male, Hsd:Sprague Dawley SD, rat, po, Free Elimination half-life

| molecule | half-life, h |
| --- | --- |
| Oc1ccc(C(c2ccc(O)cc2)(C(F)(F)F)C(F)(F)F)cc1 [BPAF, 2,2-bis(4-hydroxyphenyl)perfluoropropane] | 7.1 |
| O=S(=O)(c1ccc(O)cc1)c1ccc(O)cc1 | 4.82 |

// data source = paper PMC7931638
